Molecular target: T1, GST-hVEGF121 (human, UniProt P15692-9 27-147)
T1 construct: plate coating of the VEGF ELISAs; also called human VEGF; not shown: glutathione S-transferase (GST) fusion partner
T1 sequence (looked up): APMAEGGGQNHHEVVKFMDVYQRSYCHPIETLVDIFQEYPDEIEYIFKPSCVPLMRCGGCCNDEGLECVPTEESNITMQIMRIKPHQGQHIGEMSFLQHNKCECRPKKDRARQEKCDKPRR
Test: ELISA, coated GST-hVEGF
Readout Name: EC50

Name the reported EC50 value associated with the binder Nb-FV1 (bispecific antibody, Bispecific tandem VHH (bFGF and VEGF); with c-myc and histidine tag) QVQLVESGGGLVQPGGSLRLSCAASGTEDGRLLTLGGSWFRQAPGQGLEAVAAIGAGDRGGATYYADSVKGRFTISRDNSKNTLYLQMNSLRAEDTAVYYCTALYERQPQLAATKVARKWGQGTLVTVSSAHHSEDPSSKAPKAPAQVQLVESGGGLVQPGGSLRLSCAASGNSAEDRLYNSYTWFRQAPGQGLEAVAAISSHFSAGLTYYADSVKGRFTISRDNSKNTLYLQMNSLRAEDTAVYYCEITSHASHNDAWSTPRTVWGQGTLVTVSSAAAGSEQKLISEEDLNSHHHHHH 4.59 nM

Data provenance: patent US20250326826A1
